Catalogue of compounds with associated melting point

The examples below pair each entry with its known result.
- Compound: "Nc1nc(N)c2ncn(CCC(CO)CO)c2n1"
  Assay Metric: "melting point"
  Obs Value: "187 to 190 °C"
- Compound: "Nc1nc(OCc2ccccc2)c2ncn(CCC(CO)CO)c2n1"
  Assay Metric: "melting point"
  Obs Value: "146 to 147.5 °C"
- Compound: "CCCCCCCCCCCCCCCC(=O)OCC(CO)CCn1cnc2c(=O)[nH]c(N)nc21 (centres unmarked)"
  Assay Metric: "melting point"
  Obs Value: "183 to 191 °C"

Measured melting point of Nc1nc2c(ncn2CCC(COC=O)COC=O)c(=O)[nH]1 : 195 to 198 °C

Summary for this compound, CCCCCC(=O)OCC(CCn1cnc2c(=O)[nH]c(N)nc21)COC(=O)CCCCC : melting point is 198.5 to 201 °C
